System: PC-3 prostate
test: NCI-60 one-dose screen, 48 h (100 = growth as untreated, 0 = no growth, -100 = all killed)
applied-conditions: 10 µM unless noted
This is part of a sample that, as a whole, favours compounds with a hit. Of some 83,000 tested, about 20% had one in any assay.
property-label: growth (%)

CCC1CN1P(=O)(OCCOC)N1CC1CC (stereo not given) :: 98.2
CC(=O)C1CCC2C3CC=C4CC(OC(=O)Cc5ccc(N(CCCl)CCCl)cc5)CCC4(C)C3CCC12C (stereo not given) :: 86.2
CC(C)(C)[Si](C)(C)OC1[C@@H](O[Si](C)(C)C(C)(C)C)[C@@H](CNC(=O)NC(=O)CF)O[C@H]1n1cnc2c(NC(=O)Nc3ccccc3)ncnc21 (stereo not given in full) :: 14.5
C=CCC1(CC)C(=O)NC(=S)NC1=O :: 96.8
Nc1cccc2c1Oc1ccccc1O2 :: 84.9
CCOc1cc(C=C(C#N)C#N)cc(Br)c1O :: 98.4
C/C1=C/C(=O)O[C@@H]2C[C@@H](CC[C@H](C)/C=C\C=C\CC1)O[C@@](OCCc1ccccc1)([C@@H]1CSC(=O)N1)C2 :: 18.3
O=C1NC(=O)C(=Cc2cn(Cc3ccccc3)c3ccccc23)C(=O)N1 :: 84.2
CCC1([N+](=O)[O-])COP(=O)(NCc2cccnc2)OC1 (stereo not given) :: 106
NC(=O)SCC(=O)Nc1ccc([As](=O)(O)O)cc1 :: 77.8

* * *

Tested on: HL-60(TB) leukemia
test: NCI-60 one-dose screen, 48 h (100 = growth as untreated, 0 = no growth, -100 = all killed)
applied-conditions: 10 µM unless noted
The panel holds about 83,000 compounds, 20% with a hit somewhere; the sample as a whole holds those more often. Active and inactive are the calls of the source. Rule for the calls: active = growth percent below 10; inactive = the rest.
Catalogue of growth values
property-label: growth

OC(c1cc2ccc(C(F)(F)F)cc2c2cc(C(F)(F)F)ccc12)C1CCCCN1 (stereo unspecified) :: -72.8% (active)
CCOC(=O)C1=C(C)NC(C)=C(C(=O)OCC)C1c1cc(Br)c(O)c(OC)c1 :: 6.74% (active)
CC(=O)c1ccc(-n2cc(CN3CCN(c4cc5c(cc4F)c(=O)c(C(=O)O)cn5C4CC4)CC3)nn2)cc1 :: 99% (inactive)
N#Cc1c(-c2ccccc2)nc(SCC(=O)Nc2nc(-c3ccc(Cl)cc3)cs2)[nH]c1=O :: 96.1% (inactive)
Nc1cccc2c1C(=O)c1cccc(NC(=O)c3ccccc3)c1C2=O :: 1.36% (active)
CCOC(=O)c1sc(NC(=O)COc2cccc(/C=C3\Cc4ccc(Cl)cc4C3=O)c2)nc1C :: 120% (inactive)
C=C1C(=O)O[C@H]2[C@H]1CC/C(COC(=O)OCCCCCOC(=O)OC/C1=C/CC[C@@]3(C)O[C@H]3[C@H]3OC(=O)C(=C)[C@@H]3CC1)=C\CC[C@@]1(C)O[C@@H]21 :: -23.1% (active)
C=CCN1C(=O)c2cccc3c(N4CCOCC4)ccc(c23)C1=O :: -5.15% (active)
C=C1C(=O)O[C@H]2[C@H]1CC/C(COC(=O)c1c[nH]c3ccccc13)=C\CC[C@@]1(C)O[C@@H]21 :: -25.9% (active)
CC(=O)c1ccc(NS(=O)(=O)c2ccc([N+](=O)[O-])cc2)cc1 :: 90.3% (inactive)
c1ccc(C2NCCNC2c2ccccc2)cc1 (stereo unspecified) :: 103% (inactive)
Nc1nc(SN=Nc2ccc(S(N)(=O)=O)cc2)c2[nH]cnc2n1 :: -16% (active)
CCCCCCCCCCN1CC2CCCCC2C1 (stereo unspecified) :: 68.5% (inactive)
O=C1NC(=O)C(=Cc2cn(Cc3ccccc3)c3ccccc23)C(=O)N1 :: 96.3% (inactive)
O=Nc1ccc(O)c(=O)cc1 :: 4.36% (active)
CC(C)(C)c1cc(Br)cc(C(C)(C)C)c1O :: 94.1% (inactive)
COc1c(Cl)cc(Cl)c2ccc(C=C3C(=O)N(C)C(=O)N(C)C3=O)nc12 :: 98.1% (inactive)
CC1(C)N=C(N)N=C(N)N1c1cccc(C#N)c1 :: 35.7% (inactive)
O=C(/C(Br)=C/c1ccccc1)c1ccccc1 :: -2.59% (active)
CC1(C)OCC(COC(c2ccccc2)(c2ccccc2)c2ccccc2)O1 (stereo unspecified) :: 99.9% (inactive)
O=c1cc(N/N=C/c2ccc(F)cc2)c2cc(Cl)ccc2[nH]1 :: -9.23% (active)

* * *

Tested on: HL-60(TB) leukemia
test: NCI-60 one-dose screen, 48 h
applied-conditions: 10 µM unless noted
About 83,000 compounds went through this panel and 20% of them were active in at least one assay; those are over-represented in the sample as a whole. Active and inactive are the calls of the source. Rule for the calls: active = growth percent below 10; inactive = the rest.
Outcome codes: y = active, n = inactive

COc1ccc(-c2ccc(-c3ccc(C(=N)N)cn3)s2)cc1 :: y
COc1cccc(-c2nc(-c3ccc(N)cc3)co2)c1 :: n
COc1cccc(/C=C2\COc3ccc(-c4ccccc4)cc3C2=O)c1 :: y
Oc1ccc(N=Cc2ccc(OCc3ccccc3)cc2)cc1 :: n
O=C1c2ccccc2-c2nccc3cc(Cl)nc1c23 :: y
O=c1[nH]c(Cc2nc3ccccc3s2)nc2cc(Br)ccc12 :: n
O=C1C=CC(=O)N1c1ccccc1N1C(=O)C=CC1=O :: n
COc1ccc(/C=C2\Oc3cc(OCCCCCN4CCCCC4)ccc3C2=O)cc1OC :: n
COc1cc(/C=C2\C(=O)N(c3c(Cl)cccc3Cl)c3ccccc32)cc(OC)c1O :: y
CCCCCCNC(=O)Nc1ncnc2c1ncn2-c1ccccc1 :: n
COc1cc(C)ccc1Oc1nc(Nc2ccc(N3CCOCC3)cc2)ncc1N=Cc1cc(C(F)(F)F)cc(C(F)(F)F)c1 :: n

* * *

Test system: SK-OV-3 ovarian
test: NCI-60 one-dose screen, 48 h
applied-conditions: 10 µM unless noted
The panel holds about 83,000 compounds, 20% with a hit somewhere; the sample as a whole holds those more often. The source made the active and inactive calls. The calls were made as follows: active = growth percent below 10; inactive = the rest.
Labels: label 1 = active, label 0 = inactive

CCOc1c(Cl)cc(CNC(C)C(O)c2ccccc2)cc1OC (configuration not stated) :: label 0
CCCCCCCC(=O)OCC/C=C/C1OC1C1OC(=O)/C=C\C=C\c2nc(oc2C)/C=C(/C)CCC2OC2C1OC(=O)NC(C)=O (configuration not stated) :: label 1
O1[As]2O[As]3O[As]1O[As](O2)O3 :: label 0
CNC(=O)Oc1ccccc1-c1ccccc1 :: label 0
CC[C@@H](C)/C=C(C)/C=C/C(=O)c1c(O)c(-c2ccc(O)cc2)cn(O)c1=O :: label 0
COc1ccc(-c2ccc(OC)c(OC)c2OC)cc1 :: label 1
CC12CCC3C(CC=C4CC(O)CCC43C)C1C/C(=C\N1CCOCC1)C2=O (configuration not stated) :: label 0
Oc1c(Br)cc(Br)cc1Br.[Cu+2] :: label 0
C/C(=C\C(=O)O[C@H]1[C@@H]2[C@H](C)CC[C@H]2[C@]2(C)O[C@@]1(C1CCCCC1)C[C@H]2OC(=O)CO)c1ccccc1 :: label 0
CC[CH2][Pb]([CH2]CC)([CH2]CC)[O]C(=O)C(F)(F)F :: label 1
Nc1nc(N)c(-c2ccc(Cl)c(Cl)c2)c(/C=C/c2ccc(S(=O)(=O)F)cc2)n1 :: label 0
COc1cc(N(CCCl)CCCl)ccc1C=Nc1ccccc1C(=O)O :: label 0
Cc1cc(CCl)c(C)cc1CCl :: label 0
c1ccc2nc(OCCN3CC3)ccc2c1 :: label 0
O=C(NCc1ccc([N+](=O)[O-])cc1)Nc1ccc(S(=O)(=O)F)cc1 :: label 0
Oc1ccc(O)c2c1C1(Cl)C(Cl)=C(Cl)C2(Cl)C1(Cl)Cl :: label 0
O=C(NCCNC(=O)c1ccc([As](O)O)cc1)c1ccc([As](O)O)cc1 :: label 0
ClCCN(CCCl)c1nc(Cl)c(C2CC(c3ccccc3)=NN2c2ccccc2)s1 (configuration not stated) :: label 0
CCOP(=O)(OCC)Oc1ccc(Sc2ccc(OP(=O)(OCC)OCC)cc2)cc1 :: label 0
CO[C@@H]1[C@H](OC(=O)NC(=O)CCl)CC[C@]2(CO2)[C@H]1[C@@]1(C)O[C@@H]1CC=C(C)C :: label 0
CCOc1cc(C=C(C#N)C#N)cc(Br)c1O :: label 0
O=CN1N=C(c2ccc3c(c2)OCO3)CC1c1sc(N(CCCl)CCCl)nc1Cl (configuration not stated) :: label 0

* * *

Test system: HCC-2998 colon
test: NCI-60 one-dose screen, 48 h (100 = growth as untreated, 0 = no growth, -100 = all killed)
applied-conditions: 10 µM unless noted
The panel holds about 83,000 compounds, 20% with a hit somewhere; the sample as a whole holds those more often.
Consider the following compounds and their measured growth readings.
property-label: growth (%)

CCC1([N+](=O)[O-])COP(=O)(NCc2cccnc2)OC1 (stereo unspecified) :: 115
C1CN1c1nc(N2CC2)nc(N2CC2)n1 :: 49.7
O=S(=O)(O)c1ccc(-c2ccc([As](=O)(O)O)cc2)cc1 :: 105
NCCc1cc(O)c(O)cc1O :: 103
CC(=O)O[C@@H]1C2=C(C)C3(CC3)[C@@](C)(O)C(=O)C2=C[C@@]1(C)CO :: -68.7
CC(=O)N1N=C(c2ccccc2)CC1c1sc(N(CCCl)CCCl)nc1Cl (stereo unspecified) :: 96.4
O=C(O)CC(Br)C(=O)CBr (stereo unspecified) :: 116
CC(=O)C1C(=O)N(C)C(=O)N(C)C1=O :: 112
O=C1NC(=O)C(CN2C(=O)C3(c4ccccc42)[C@H](Cl)C(=O)N3c2ccccc2)C(=O)N1 (stereo partly specified) :: 83.9
O=[N+]([O-])c1ccc2cnn(CSP(=S)(c3ccccc3)c3ccccc3)c2c1 :: 89
O=[N+]([O-])c1cc([N+](=O)[O-])c(Cl)c(Cl)c1Cl :: 78.8
